- Tested on: EKVX
- RUN_DESCRIPTION: Growth inhibition of human EKVX cells incubated for 48 hrs by sulforhodamine B assay
- Format: functional
EXPERIMENTAL_READOUT: GI50 (µM)
Give bare numbers, in µM.

Examples from the recorded data:
1) C=C1CC[C@@H]2[C@](C)(COC(C)=O)[C@H](OC(C)=O)CC[C@@]2(C)[C@H]1CC(Nc1ccc(S(=O)(=O)Nc2nccc(C)n2)cc1)C1=CCOC1=O (stereo not given in full) = 13.9
2) C=C1CC[C@@H]2[C@](C)(COC(C)=O)[C@H](OC(C)=O)CC[C@@]2(C)[C@H]1CC(Nc1ccc(S(=O)(=O)Nc2ccc(Cl)nn2)cc1)C1=CCOC1=O (stereo not given in full) = 4.53
3) C=C1CC[C@@H]2[C@](C)(COC(C)=O)[C@H](OC(C)=O)CC[C@@]2(C)[C@H]1CC(Nc1ccc(S(=O)(=O)Nc2nccs2)cc1)C1=CCOC1=O (stereo not given in full) = 14
4) C=C1CC[C@@H]2[C@](C)(COC(C)=O)[C@H](OC(C)=O)CC[C@@]2(C)[C@H]1CC(Nc1ccc(S(=O)(=O)Nc2cc(C)on2)cc1)C1=CCOC1=O (stereo not given in full) = 11

Continue with the compound presented below.
Query: Consider the compound C=C1CC[C@@H]2[C@](C)(COC(C)=O)[C@H](OC(C)=O)CC[C@@]2(C)[C@H]1CC(Nc1ccc(S(=O)(=O)Nc2ncccn2)cc1)C1=CCOC1=O (stereo not given in full) and give its measured GI50.
Result: 8.18

* * *

- System: HCT-116
- RUN_DESCRIPTION: Anticancer activity against human HCT116 cells assessed as cell growth at 10 uM after 48 hrs by sulforhodamine B assay relative to control
- Format: functional
- CONDITION_SET: HCT-116, 48 h, read-out: Activity
Please go through the items and note down their growth at 10 µM.
Give bare numbers, in %.

State the recorded growth at 10 µM for every item in the following list.
1. C=C1CC[C@@H]2[C@](C)(COC(C)=O)[C@H](OC(C)=O)CC[C@@]2(C)[C@H]1CC(Nc1ccc(S(=O)(=O)Nc2nc(C)cc(C)n2)cc1)C1=CCOC1=O (stereo partly specified)
2. C=C1CC[C@@H]2[C@](C)(COC(C)=O)[C@H](OC(C)=O)CC[C@@]2(C)[C@H]1CC(Nc1ccc(S(=O)(=O)Nc2cc(C)on2)cc1)C1=CCOC1=O (stereo partly specified)

Result:
[39.2, -1.13]

* * *

- System: SR
- RUN_DESCRIPTION: Anticancer activity against human SR cells assessed as cell growth at 10 uM after 48 hrs by sulforhodamine B assay relative to control
- Type: functional
- CONDITION_SET: read-out: Activity
EXPERIMENTAL_READOUT: growth at 10 µM (%)
Answers are plain numbers, in %.

Consider the following illustrative entries.
1) C=C1CC[C@@H]2[C@](C)(COC(C)=O)[C@H](OC(C)=O)CC[C@@]2(C)[C@H]1CC(Nc1ccc(S(=O)(=O)Nc2nccc(C)n2)cc1)C1=CCOC1=O (stereo partly specified) = 0.79
2) C=C1CC[C@@H]2[C@](C)(COC(C)=O)[C@H](OC(C)=O)CC[C@@]2(C)[C@H]1CC(Nc1ccc(S(=O)(=O)Nc2ccc(Cl)nn2)cc1)C1=CCOC1=O (stereo partly specified) = -5.26
3) C=C1CC[C@@H]2[C@](C)(COC(C)=O)[C@H](OC(C)=O)CC[C@@]2(C)[C@H]1CC(Nc1ccc(S(=O)(=O)Nc2nccs2)cc1)C1=CCOC1=O (stereo partly specified) = -5.84

Report growth at 10 µM for each item below.
1. C=C1CC[C@@H]2[C@](C)(COC(C)=O)[C@H](OC(C)=O)CC[C@@]2(C)[C@H]1CC(Nc1ccc(S(=O)(=O)Nc2cc(C)on2)cc1)C1=CCOC1=O (stereo partly specified)
2. C=C1CC[C@@H]2[C@](C)(COC(C)=O)[C@H](OC(C)=O)CC[C@@]2(C)[C@H]1CC(Nc1ccc(S(=O)(=O)Nc2nc(C)cc(C)n2)cc1)C1=CCOC1=O (stereo partly specified)
3. C=C1CC[C@@H]2[C@](C)(COC(C)=O)[C@H](OC(C)=O)CC[C@@]2(C)[C@H]1CC(Nc1ccc(S(=O)(=O)Nc2ncccn2)cc1)C1=CCOC1=O (stereo partly specified)

Result:
1.4
22.2
-4.43

Every entry's value here was drawn from ChEMBL document CHEMBL4033712.
